// data source = ChEMBL document CHEMBL3865830

assay: Reactive carbonyl species trapping activity of compound assessed as MDA adduct formation at 10 mM preincubated for 24 hrs with MDA measured after 1 hr by LCMS analysis; type: physicochemical; details: 10000 µM
readout.kind: Activity (%)

1) Cl.Cl.NCC(N)CCC(=O)NCCCn1cccc(O)c1=O (configuration not stated)
81

A. Cl.Cl.NCC(N)CCCCNC(=O)c1cc(O)c(O)c(O)c1 (configuration not stated)
B. NCCC(=O)N[C@@H](Cc1cnc[nH]1)C(=O)O
Higher Activity: A or B ? # respond with the chosen item's label
A

I. Cc1c(O)c(=O)ccn1CCCNC(=O)CCC(N)CN.Cl.Cl (configuration not stated)
II. Cl.Cl.NCC(N)CCCNC(=O)CCn1cccc(O)c1=O (configuration not stated)
III. COc1cc(/C=C/C(=O)NCCCCC(N)CN)ccc1O.Cl.Cl (configuration not stated)
hey, can you rank those compounds up there by Activity? biggest number first please I'd appreciate it if you listed the labels in the requested order.
I, III, II
